species: Homo sapiens; test: Selectivity index, ratio of IC50 for recombinant human MAO-A to IC50 for recombinant human MAO-B
// NB: equality with 20 counts as 0.0; only Ratio IC50 strictly below is 1.0

                                         smi  classification
 0   C#CCN(CCCCOc1ccc2ccc(=O)oc2c1)Cc1ccccc1             0.0
 1             C#CCN(C)CCOc1ccc2ccc(=O)oc2c1             0.0
 2  C#CCN(CCOc1ccc2ccc(=O)oc2c1)Cc1ccc(C(C)C)cc1             1.0
 3  C#CCN(CCCCOc1ccc2ccc(=O)oc2c1)Cc1cccc(F)c1             0.0
 4    C#CCN(CCCOc1ccc2ccc(=O)oc2c1)Cc1ccccc1             1.0
 5  C#CCN(CCCCOc1ccc2ccc(=O)oc2c1)Cc1cccc(OC)c1             0.0
 6           C#CCN(C)CCCCOc1ccc2ccc(=O)oc2c1             0.0
 7  C#CCN(CCCOc1ccc2ccc(=O)oc2c1)Cc1cccc(OC)c1             1.0
 8  C#CCN(CCCCOc1ccc2ccc(=O)oc2c1)Cc1ccc(C)cc1             0.0
 9  C#CCN(CCOc1ccc2ccc(=O)oc2c1)Cc1cccc(OC)c1             1.0
10  C#CCN(CCOc1ccc2ccc(=O)oc2c1)Cc1cccc(F)c1             1.0
11  C#CCN(CCCOc1ccc2ccc(=O)oc2c1)Cc1ccc(F)c(F)c1             1.0
12  C#CCN(CCOc1ccc2ccc(=O)oc2c1)Cc1ccc(F)c(F)c1             1.0
13  C#CCN(CCCCOc1ccc2ccc(=O)oc2c1)Cc1ccc(F)c(F)c1             0.0
14  C#CCN(CCCOc1ccc2ccc(=O)oc2c1)Cc1ccc(OC)cc1             1.0
15  C#CCN(CCOc1ccc2ccc(=O)oc2c1)Cc1ccc(C)cc1             1.0
16  C#CCN(CCCOc1ccc2ccc(=O)oc2c1)Cc1ccc(C(C)C)cc1             1.0
17  C#CCN(CCCCOc1ccc2ccc(=O)oc2c1)Cc1ccc(OC)cc1             0.0
18     C#CCN(CCOc1ccc2ccc(=O)oc2c1)Cc1ccccc1             1.0
19  C#CCN(CCOc1ccc2ccc(=O)oc2c1)Cc1ccc(OC)cc1             1.0
20  C#CCN(CCCOc1ccc2ccc(=O)oc2c1)Cc1ccc(C)cc1             1.0
21  C#CCN(CCCCOc1ccc2ccc(=O)oc2c1)Cc1ccc(C(C)C)cc1             1.0
22  C#CCN(CCCOc1ccc2ccc(=O)oc2c1)Cc1cccc(F)c1             1.0
23            C#CCN(C)CCCOc1ccc2ccc(=O)oc2c1             0.0

###

experiment: Permeability of the compound in PBS/EtOH at […] after 16 hrs by PAMPA; assay type: ADME; settings: read-out: Peff
EXPERIMENTAL ENDPOINT: Papp at 16 h (×10⁻⁶ cm/s)

In [3]: df
Out[3]:
                                   compound  reported_result
0           C#CCN(C)CCCCOc1ccc2ccc(=O)oc2c1             8.92
1  CCn1cc(C(=O)O)c(=O)c2cc(F)c(N3CCNC(C)C3)c(F)c21 (stereo not drawn)             1.05
2  C[C@]12CC[C@@H]3c4ccc(O)cc4CC[C@H]3[C@@H]1CC[C@@H]2O                8

###

Molecular target: Amine oxidase [flavin-containing] B (Homo sapiens, UniProt P27338)
Sequence (P27338 whole entry): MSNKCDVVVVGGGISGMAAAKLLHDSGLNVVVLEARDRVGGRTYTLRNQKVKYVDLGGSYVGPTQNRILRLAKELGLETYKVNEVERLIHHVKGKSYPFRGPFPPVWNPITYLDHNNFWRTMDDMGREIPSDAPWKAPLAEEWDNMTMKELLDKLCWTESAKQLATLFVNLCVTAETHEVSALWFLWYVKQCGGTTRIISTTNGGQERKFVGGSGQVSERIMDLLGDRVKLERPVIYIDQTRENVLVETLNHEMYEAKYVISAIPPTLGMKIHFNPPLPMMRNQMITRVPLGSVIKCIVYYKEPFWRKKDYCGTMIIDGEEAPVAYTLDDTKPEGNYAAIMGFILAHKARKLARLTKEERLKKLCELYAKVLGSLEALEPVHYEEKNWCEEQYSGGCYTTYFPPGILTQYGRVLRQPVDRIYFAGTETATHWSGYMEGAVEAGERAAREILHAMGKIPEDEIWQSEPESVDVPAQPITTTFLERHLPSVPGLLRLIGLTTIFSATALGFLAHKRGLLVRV
Test: Inhibition of recombinant human MAO-B using p-tyramine as substrate preincubated for 15 mins followed by substrate addition measured after 20 mins by amplex red reagent based fluorescence assay
pIC50: −log10 of the molar value.
EXPERIMENTAL ENDPOINT: pIC50

>>> print(df.to_string())
                                         smi                                    target  experimental_endpoint  reported_result
 0  C#CCN(CCCOc1ccc2ccc(=O)oc2c1)Cc1ccc(OC)cc1  Amine oxidase [flavin-containing] B (Homo sapiens, UniProt P27338)                  pIC50             5.22
 1             C#CCN(C)CCOc1ccc2ccc(=O)oc2c1  Amine oxidase [flavin-containing] B (Homo sapiens, UniProt P27338)                  pIC50             5.96
 2  C#CCN(CCOc1ccc2ccc(=O)oc2c1)Cc1cccc(OC)c1  Amine oxidase [flavin-containing] B (Homo sapiens, UniProt P27338)                  pIC50             5.15
 3           C#CCN(C)CCCCOc1ccc2ccc(=O)oc2c1  Amine oxidase [flavin-containing] B (Homo sapiens, UniProt P27338)                  pIC50             7.57
 4  C#CCN(CCCCOc1ccc2ccc(=O)oc2c1)Cc1ccc(OC)cc1  Amine oxidase [flavin-containing] B (Homo sapiens, UniProt P27338)                  pIC50             5.95
 5  C#CCN(CCCOc1ccc2ccc(=O)oc2c1)Cc1cccc(F)c1  Amine oxidase [flavin-containing] B (Homo sapiens, UniProt P27338)                  pIC50             5.35
 6  C#CCN(CCCOc1ccc2ccc(=O)oc2c1)Cc1ccc(F)c(F)c1  Amine oxidase [flavin-containing] B (Homo sapiens, UniProt P27338)                  pIC50             5.31
 7  C#CCN(CCOc1ccc2ccc(=O)oc2c1)Cc1ccc(C(C)C)cc1  Amine oxidase [flavin-containing] B (Homo sapiens, UniProt P27338)                  pIC50             5.16
 8  C#CCN(CCCCOc1ccc2ccc(=O)oc2c1)Cc1ccc(C)cc1  Amine oxidase [flavin-containing] B (Homo sapiens, UniProt P27338)                  pIC50             5.78
 9     C#CCN(CCOc1ccc2ccc(=O)oc2c1)Cc1ccccc1  Amine oxidase [flavin-containing] B (Homo sapiens, UniProt P27338)                  pIC50             5.08
10  C#CCN(CCCOc1ccc2ccc(=O)oc2c1)Cc1cccc(OC)c1  Amine oxidase [flavin-containing] B (Homo sapiens, UniProt P27338)                  pIC50             5.34
11  C#CCN(CCOc1ccc2ccc(=O)oc2c1)Cc1cccc(F)c1  Amine oxidase [flavin-containing] B (Homo sapiens, UniProt P27338)                  pIC50             5.26
12  C#CCN(CCCOc1ccc2ccc(=O)oc2c1)Cc1ccc(C(C)C)cc1  Amine oxidase [flavin-containing] B (Homo sapiens, UniProt P27338)                  pIC50             5.12
13    C#CCN(CCCOc1ccc2ccc(=O)oc2c1)Cc1ccccc1  Amine oxidase [flavin-containing] B (Homo sapiens, UniProt P27338)                  pIC50             5.43
14  C#CCN(CCCCOc1ccc2ccc(=O)oc2c1)Cc1ccc(C(C)C)cc1  Amine oxidase [flavin-containing] B (Homo sapiens, UniProt P27338)                  pIC50             5.46
15  C#CCN(CCOc1ccc2ccc(=O)oc2c1)Cc1ccc(C)cc1  Amine oxidase [flavin-containing] B (Homo sapiens, UniProt P27338)                  pIC50             5.25
16            C#CCN(C)CCCOc1ccc2ccc(=O)oc2c1  Amine oxidase [flavin-containing] B (Homo sapiens, UniProt P27338)                  pIC50             5.96
17  C#CCN(CCOc1ccc2ccc(=O)oc2c1)Cc1ccc(F)c(F)c1  Amine oxidase [flavin-containing] B (Homo sapiens, UniProt P27338)                  pIC50             5.02
